Target: T1, recombinant human EGFR extracellular domain with 6xHis (human, UniProt P00533 25-645)
T1 construct: In-house produced; also called 6xHis EGFR ECD; soluble human EGFR ECD; not shown: 6xHis tag
Assay: SPR competition, competitor 1042
Protocol: SPR analysis was performed on a Biacore 3000 machine containing four flow cells. A CM5 Biacore chip was conjugated with 10,000 Resonance units (Ru) polyclonal anti-His antibody to flow cells 1-4 according to the manufacturer's instructions. […] Immediately after antigen injection the maximal binding of the Anti-EGFR mAb without competition was established in each flow cell during a reference run. […]
Reported values of % inhibition for individual entries
Please give a number only; it is taken to be in %.

Binder: antibody 1320 (antibody, human IgG1, kappa, V domains shown, Chimeric IgG1 kappa) VH: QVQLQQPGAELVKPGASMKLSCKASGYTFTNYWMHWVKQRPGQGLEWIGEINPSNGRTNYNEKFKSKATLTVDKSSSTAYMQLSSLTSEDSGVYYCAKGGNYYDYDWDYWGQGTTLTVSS VL: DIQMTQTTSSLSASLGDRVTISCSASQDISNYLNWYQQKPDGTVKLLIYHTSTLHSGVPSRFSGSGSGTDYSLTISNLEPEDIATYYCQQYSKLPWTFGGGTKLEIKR
% inhibition [%]: 48
//
Binder: antibody 1260 (antibody, human IgG1, kappa, V domains shown, Chimeric IgG1 kappa) VH: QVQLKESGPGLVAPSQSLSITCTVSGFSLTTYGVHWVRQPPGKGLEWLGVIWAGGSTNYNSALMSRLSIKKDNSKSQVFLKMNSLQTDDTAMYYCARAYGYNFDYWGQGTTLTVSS VL: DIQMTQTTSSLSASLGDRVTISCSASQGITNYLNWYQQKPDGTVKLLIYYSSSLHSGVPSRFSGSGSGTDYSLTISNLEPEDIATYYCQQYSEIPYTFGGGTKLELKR
% inhibition [%]: 31

Turning now to a further binder:
Query: Endpoint output: % inhibition of antibody 1208 (antibody, human IgG1, kappa, V domains shown, Chimeric IgG1 kappa; also called clone 1208) VH: EVQLVESGGGLVKPGGSLKLSCAASGFAFSSYDMSWVRQTPEKRLEWVAYIGSGDDNTHYPDSVKGRFTISRHNAKNTLYLQMSSLKSEDTAMYYCARQKYGNYGDTMDYWGQGTSVTVSS VL: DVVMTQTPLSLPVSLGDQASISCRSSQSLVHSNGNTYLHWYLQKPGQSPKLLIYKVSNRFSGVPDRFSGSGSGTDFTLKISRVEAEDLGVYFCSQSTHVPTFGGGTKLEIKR . Value?
Reply: 9
